# System: A2780
# Assay info: Antiproliferative activity against human A2780 cells after 3 days by MTT assay
# Assay type: functional, cell-based
# Condition label: Homo sapiens, A2780, 72 h
Entries annotated with measured IC50

// solved cases for IC50 follow
| Compound | Readout | Recorded measurement |
| --- | --- | --- |
| COc1ccc(C2(O)SC=C(C)n3c2noc3=O)cc1 (stereo not given) | IC50 | > 100 µM |
| CC1=CSC(O)(c2ccccc2)c2noc(=O)n21 (stereo not given) | IC50 | > 100 µM |
| CCCCOC1(c2ccc(Br)cc2)SC=C(C)n2c1noc2=O (stereo not given) | IC50 | 82 µM |
| CCCCCCCCCCCCCCCOC1(c2ccc(Cl)cc2)SC=C(C)n2c1noc2=O (stereo not given) | IC50 | > 100 µM |
| COc1cccc2c1C(=O)c1c(O)c3c(c(O)c1C2=O)C[C@@](O)(C(=O)CO)C[C@@H]3O[C@H]1C[C@H](N)[C@H](O)[C@H](C)O1 | IC50 | 0.02 µM |
| O=c1onc2n1C=CSC2(O)c1ccc(Cl)cc1 (stereo not given) | IC50 | > 100 µM |
| COC1(c2ccc(Cl)cc2)SC=C(C)n2c1noc2=O (stereo not given) | IC50 | 166 µM |
| COc1ccc([C@@H]2Sc3ccccc3N(CCN(C)C)C(=O)[C@@H]2OC(C)=O)cc1 | IC50 | 163 µM |

Query: Enter recorded IC50 with A2780 for CC1=CSC(O)(c2ccc(C)cc2)c2noc(=O)n21 (stereo not given) here.
Reply: > 100 µM

Query: Enter recorded IC50 with A2780 for O=c1onc2n1C=CSC2(O)c1ccccc1 (stereo not given) here.
Reply: > 100 µM

###

# System: A2780
# Assay info: Antiproliferative activity against human A2780 cells after 3 days by MTT assay
# Assay type: functional, cell-based
# Condition label: Homo sapiens, A2780, 72 h
Entries annotated with measured pIC50
Scale: pIC50 equals -log10([C]), with [C] in mol/L.

// solved cases for pIC50 follow
| Molecule | pIC50 |
| --- | --- |
| CC1=CSC(O)(c2cccc(C(F)(F)F)c2)c2noc(=O)n21 (centres undefined) | 4.22 |
| CC/C=C\COC1(c2ccc(Cl)cc2)SC=C(C)n2c1noc2=O (centres undefined) | 4.26 |
| CC1=CSC(O)(c2cccc([N+](=O)[O-])c2)c2noc(=O)n21 (centres undefined) | 3.80 |

Query: Give recorded pIC50. CC/C=C/COC1(c2ccc(Br)cc2)SC=C(C)n2c1noc2=O (centres undefined)
Reply: 4.23

Query: Give recorded pIC50. CCCCCOC1(c2ccc(Br)cc2)SC=C(C)n2c1noc2=O (centres undefined)
Reply: 3.97

Query: Give recorded pIC50. COC1(c2ccc(Br)cc2)SC=C(C)n2c1noc2=O (centres undefined)
Reply: 3.83

Query: Give recorded pIC50. CCCCOC1(c2ccc(Cl)cc2)SC=C(C)n2c1noc2=O (centres undefined)
Reply: 4.05

Query: Give recorded pIC50. CC/C=C/COC1(c2ccc(Cl)cc2)SC=C(C)n2c1noc2=O (centres undefined)
Reply: 4.26

###

# System: A2780
# Assay info: Antiproliferative activity against human A2780 cells after 3 days by MTT assay
# Assay type: functional, cell-based
Readout: IC5 (µM)
# value in µM; strip the unit string

| Compound | Recorded measurement |
| --- | --- |
| COC1(c2ccc(Br)cc2)SC=C(C)n2c1noc2=O (stereo unspecified) | 21.6 |
| CCCCCCCCCCCCCCCCCCOC1(c2ccc(Cl)cc2)SC=C(C)n2c1noc2=O (stereo unspecified) | 4.74 |
| O=c1onc2n1C=CSC2(O)c1ccc(Cl)cc1 (stereo unspecified) | 0.48 |
| CCCCCOC1(c2ccc(Cl)cc2)SC=C(C)n2c1noc2=O (stereo unspecified) | 7.8 |
| CCCCCOC1(c2ccc(Br)cc2)SC=C(C)n2c1noc2=O (stereo unspecified) | 2.6 |
| CC1=CSC(O)(c2cccc([N+](=O)[O-])c2)c2noc(=O)n21 (stereo unspecified) | 3.95 |
| CC1=CSC(O)(c2ccc(C)cc2)c2noc(=O)n21 (stereo unspecified) | 28.8 |
| COc1ccc(C2(O)SC=C(C)n3c2noc3=O)cc1 (stereo unspecified) | 40.1 |

Query: Give recorded IC5. CC1=CSC(O)(c2ccc([N+](=O)[O-])cc2)c2noc(=O)n21 (stereo unspecified)
Reply: 7.7

Query: Give recorded IC5. CCCCOC1(c2ccc(Cl)cc2)SC=C(C)n2c1noc2=O (stereo unspecified)
Reply: 19.7

Query: Give recorded IC5. CCCCOC1(c2ccc(Br)cc2)SC=C(C)n2c1noc2=O (stereo unspecified)
Reply: 7.7

###

Entries annotated with measured IC5
# Tested on: A2780
# Assay info: Antiproliferative activity against human A2780 cells after 3 days by MTT assay
# Assay type: functional, cell-based
# value in µM; strip the unit string

| Molecule | IC5 (µM) |
| --- | --- |
| CCCCCCCCCCCCCCCCCCOC1(c2ccc(Br)cc2)SC=C(C)n2c1noc2=O (configuration not stated) | 0.9 |

Query: Give recorded IC5. O=c1onc2n1C=CSC2(O)c1ccccc1 (configuration not stated)
Reply: 4.4

Query: Give recorded IC5. COC1(c2ccc(Cl)cc2)SC=C(C)n2c1noc2=O (configuration not stated)
Reply: 28.4

###

Entries annotated with measured EC50
# Assay info: Blockade of L-type calcium channel
# value in nM; strip the unit string

| Compound | Readout | Recorded measurement |
| --- | --- | --- |
| COc1ccc([C@@H]2Sc3ccccc3N(CCN(C)C)C(=O)[C@@H]2OC(C)=O)cc1 [DILTIAZEM] | EC50 | 790 |

Turning now to a further compound:
Query: Give recorded EC50. CCOC1(c2ccc(Br)cc2)SC=C(C)n2c1noc2=O (configuration not stated)
Reply: 40

###

# Tested on: A2780
# Assay info: Antiproliferative activity against human A2780 cells after 3 days by MTT assay
# Assay type: functional, cell-based
Entries annotated with measured IC5
# value in µM; strip the unit string

| Compound | IC5 [µM] |
| --- | --- |
| CC/C=C/COC1(c2ccc(Cl)cc2)SC=C(C)n2c1noc2=O (centres undefined) | 1.26 |
| CC1=CSC(O)(c2cccc(Cl)c2)c2noc(=O)n21 (centres undefined) | 24.3 |
| CC1=CSC(O)(c2cccc(C(F)(F)F)c2)c2noc(=O)n21 (centres undefined) | 18.3 |

Query: Enter recorded IC5 with A2780 for CCCCCCCCCCCCCCCOC1(c2ccc(Cl)cc2)SC=C(C)n2c1noc2=O (centres undefined) here.
Reply: 2.1

###

Entries annotated with measured log10 IC5
# System: A2780
# Assay info: Antiproliferative activity against human A2780 cells after 3 days by MTT assay
# Format: functional, cell-based
Hello, just confirming the data are log10 of IC5 with units of µM.

| Compound | Experimental system | log10 IC5 |
| --- | --- | --- |
| CCOC1(c2ccc(Br)cc2)SC=C(C)n2c1noc2=O (stereo not given) | A2780 | 0.52 |
| COc1ccc([C@@H]2Sc3ccccc3N(CCN(C)C)C(=O)[C@@H]2OC(C)=O)cc1 [DILTIAZEM] | A2780 | 0.45 |
| CC1=CSC(O)(c2ccccc2)c2noc(=O)n21 (stereo not given) | A2780 | 2.00 |
| CC/C=C/COC1(c2ccc(Br)cc2)SC=C(C)n2c1noc2=O (stereo not given) | A2780 | 0.28 |

Turning now to a further compound:
Query: Give recorded log10 IC5. CC/C=C\COC1(c2ccc(Cl)cc2)SC=C(C)n2c1noc2=O (stereo not given)
Reply: 0.54
